Details: in acetic acid, 318.15 K
test_readout: solubility (mole fraction)
Number only, no unit.

Ask: Any idea what its solubility (mole fraction) is? The compound is "O=C(O)CCCCCCCCCCCC(=O)O"
Result: 0.0201

---

Details: in acetone, 313.15 K
test_readout: solubility (mole fraction)

Ask: Any idea what its solubility (mole fraction) is? The molecule is "O=C(O)CCCCCCCCCCCC(=O)O"
Result: 0.0128

---

Details: in acetic acid, 313.15 K
test_readout: solubility (mole fraction)
Number only, no unit.

Ask: Any idea what its solubility (mole fraction) is? The compound is "O=C(O)CCCCCCCCCCCC(=O)O"
Result: 0.0138

Origin of measurements: BigSolDB 2.1
